Data origin, for the record: patent US20150037348A1

- testTarget: T1, human IL-12 (human, UniProt P29459 23-219; P29460 23-328)
- T1 sequence (looked up) 1: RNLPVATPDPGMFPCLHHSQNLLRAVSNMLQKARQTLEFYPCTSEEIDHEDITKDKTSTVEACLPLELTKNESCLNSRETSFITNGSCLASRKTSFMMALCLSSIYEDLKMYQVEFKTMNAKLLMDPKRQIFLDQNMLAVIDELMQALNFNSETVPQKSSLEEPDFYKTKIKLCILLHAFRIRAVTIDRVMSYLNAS
- T1 sequence (looked up) 2: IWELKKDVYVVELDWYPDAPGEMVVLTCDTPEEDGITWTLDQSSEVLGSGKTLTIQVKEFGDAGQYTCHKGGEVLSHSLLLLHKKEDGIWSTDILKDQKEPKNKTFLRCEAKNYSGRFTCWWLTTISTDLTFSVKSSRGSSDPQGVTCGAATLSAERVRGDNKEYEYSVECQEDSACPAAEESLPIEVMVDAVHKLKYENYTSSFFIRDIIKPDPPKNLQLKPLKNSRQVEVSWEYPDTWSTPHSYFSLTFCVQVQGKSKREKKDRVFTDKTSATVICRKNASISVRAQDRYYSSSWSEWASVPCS
- testMethodNotes: cell-based or functional assay
Assignment: determine reported PHA assay IC50 for the given binders.
Give bare numbers, in nM.

149-7 (scFv, V domains shown, scFv) VH: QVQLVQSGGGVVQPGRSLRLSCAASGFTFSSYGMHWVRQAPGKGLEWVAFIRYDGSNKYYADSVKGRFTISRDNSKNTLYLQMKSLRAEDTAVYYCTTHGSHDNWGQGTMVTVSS VL: SYVLTQPPSVSGTPGQRVTISCSGGRSNIGSNTVKWYQQLPGTAPKLLIYGNDQRPSGVPDRFSGSKSGTSASLAITGVQAEDEADYYCQSYDRDFTGSRVFGTGTKVTVL | 3

We next turn to a different binder, shown below.
So what does the record say about PHA assay IC50 for 103-8 (scFv, V domains shown, scFv) VH: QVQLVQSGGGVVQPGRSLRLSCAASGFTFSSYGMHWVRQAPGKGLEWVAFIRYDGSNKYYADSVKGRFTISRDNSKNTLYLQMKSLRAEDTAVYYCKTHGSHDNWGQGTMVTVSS VL: SYVLTQPPSVSGTPGQRVTISCSGGRSNIGSNTVKWYQQLPGTAPKLLIYGNDQRPSGVPDRFSGSKSGTSASLAITGVQAEDEADYYCQTYDKGFTGSSVFGTGTKVTVL ?
1.5
